System: SW-620
Assay: NCI tumour cell line growth inhibition, 48 h
Activity calls are given as the source filed them. Cut-off read from the data, not from the text of the source: active = GI50 up to about 1.1 µM and inactive = higher.
# valid calls are Y for active, N for inactive; nothing else

>>> print(df.to_string())
                                   compound  answer_label
0  COc1cc(C2c3cc4c(cc3[C@@H](Nc3ccc([N+](=O)[O-])cc3)C3COC(=O)[C@H]23)OCO4)cc(OC)c1O (some centres undefined)             N
1  COc1ccc(COCC(Cn2ccnc2)OCc2ccc(C(=O)O)cc2)cc1 (centres undefined)             N
2  O=C1/C(=C\c2ccccc2)C(NC2CCCCC2)c2ccccc21 (centres undefined)             Y

Record lookup: outcome of this test for `Nc1ccc(-c2nc3ccccc3s2)cc1C#Cc1ccccc1` ?
N

---

Tested on: 786-0
Experiment: NCI tumour cell line growth inhibition, 48 h
Active and inactive are the calls of the source. No stated cut-off is given here; in the data, active = GI50 up to about 1.1 µM and inactive = higher.
Listing of recorded GI50 by entry.

                                   compound  endpoint_name         measurement
0  CCCCOC(=O)C1CC[C@H]2[C@@H]3CCc4cc(OC(=O)c5cccc6c(=O)c7ccccc7[nH]c56)ccc4[C@H]3CC[C@]12C (stereo not given in full)           GI50  9.89 µM (inactive)
1  Cc1c2c(OCCCCN3CCN(c4ncccn4)CC3)nn(C)c(=O)c2c(C)n1-c1ccccc1           GI50  18.1 µM (inactive)

Sample `CC1(C)C(c2ccccc2)=[N+]([O-])C(C)(C)N1O` — what was its GI50?
> 10 µM (inactive)

Sample CSC[C@H](NC(=O)COc1cccc2cnccc12)C(=O)NC(Cc1ccccc1)C(O)C(=O)N1CSC[C@H]1C(=O)NC(C)(C)C (stereo not given in full) — what was its GI50?
44.5 µM (inactive)

Sample `O=C1NC(Nc2ccccc2)=N/C1=C\c1c(Cl)cccc1Cl` — what was its GI50?
15.1 µM (inactive)

Sample `Cc1ncc([N+](=O)[O-])n1CCNC(=O)CCC(=O)NCCCn1ccnc1[N+](=O)[O-]` — what was its GI50?
> 100 µM (inactive)

Sample `CCOc1ccc(Nc2nc(N)nc(N)c2N)cc1` — what was its GI50?
22.3 µM (inactive)

Sample COc1ccc(OC)c2c1C(=O)C1CC1(Br)C2=O (stereo not given) — what was its GI50?
> 100 µM (inactive)

Sample `Clc1nc2c(N3CCCC3)nc(N3CCNCC3)nc2[nH]1` — what was its GI50?
17.8 µM (inactive)

Sample C=C[C@@H]1C(CO)=CCC2[C@H]1CCC1C(C)(C)C(=O)CC[C@]21C (stereo not given in full) — what was its GI50?
> 100 µM (inactive)

---

Test system: UACC-257
Assay: NCI tumour cell line growth inhibition, 48 h
Active and inactive are the calls of the source. Rule as the data show it: active = GI50 up to about 1.1 µM and inactive = higher.
# valid calls are active, inactive; nothing else

Reference set, count: 4
Compound	Answer label
CCCCC1CC(c2ccc(Cl)cc2)=NO1 (stereo not drawn)	inactive
COc1cc2c(c(OC)c1OC)-c1cccc(=O)cc1C(NC(C)=O)CC2 (stereo not drawn)	active
CC1(C)C(=O)N=C(N)N1C(=O)OCc1ccccc1	inactive
CSc1nc(Cl)c2c(n1)Sc1nc3cc4c(cc3n1C2O)OCO4 (stereo not drawn)	inactive

Record lookup: outcome of this test for CCOC(=O)C(OP(=O)(OCC)OCC)C(F)(F)F (stereo not drawn) ?
inactive
